Entry source: patent US9580416B2

target: Btk (Homo sapiens); assay: Btk kinase activity, TR-FRET assay; type: biochemical; conditions: read-out: Btk (IC50)
Sequence (Q06187 whole entry): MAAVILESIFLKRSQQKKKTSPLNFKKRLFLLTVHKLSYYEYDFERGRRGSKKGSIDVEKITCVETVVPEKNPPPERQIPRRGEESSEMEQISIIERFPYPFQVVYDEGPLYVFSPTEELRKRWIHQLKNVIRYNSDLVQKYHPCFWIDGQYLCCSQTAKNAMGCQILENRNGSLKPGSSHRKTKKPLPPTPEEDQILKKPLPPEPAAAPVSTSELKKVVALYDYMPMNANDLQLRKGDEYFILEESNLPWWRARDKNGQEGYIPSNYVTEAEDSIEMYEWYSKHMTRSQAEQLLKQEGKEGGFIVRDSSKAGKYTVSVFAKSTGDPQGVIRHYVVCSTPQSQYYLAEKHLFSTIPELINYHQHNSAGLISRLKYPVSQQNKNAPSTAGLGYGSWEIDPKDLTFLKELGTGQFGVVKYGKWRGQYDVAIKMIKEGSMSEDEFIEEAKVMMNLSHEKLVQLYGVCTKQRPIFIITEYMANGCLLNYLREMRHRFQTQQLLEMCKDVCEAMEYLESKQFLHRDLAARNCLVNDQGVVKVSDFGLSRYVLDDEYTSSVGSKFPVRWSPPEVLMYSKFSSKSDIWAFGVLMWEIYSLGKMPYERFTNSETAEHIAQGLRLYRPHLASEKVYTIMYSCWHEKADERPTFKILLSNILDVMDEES
pIC50: −log10 of the molar value.
REPORTED_METRIC: pIC50

Answered examples (2):
O=C(Nc1cc(C(F)(F)F)ccn1)c1ccc(Oc2ccnc3[nH]nc(N[C@@H]4CCN(C(=O)C5CC5)C4)c23)cc1 :: > 7.00
O=C(Nc1cc(C(F)(F)F)ccn1)c1ccc(Oc2ccnc3[nH]nc(C4CCCN(C(=O)C5CC5)C4)c23)cc1 (stereo not drawn) :: 6.00 to 7.00

### Prompt Reported pIC50, molecule Cc1ccnc(NC(=O)c2ccc(Oc3ccnc4[nH]nc(N[C@@H]5CCCN(C(=O)C6(C)CCOC6)C5)c34)cc2)c1 (stereo partly drawn) : ____
### Response > 7.00

### Prompt Reported pIC50, molecule `CN(C)CCCC(=O)N[C@@H]1CCCN(c2n[nH]c3nccc(Oc4ccc(C(=O)Nc5cc(C(F)(F)F)ccn5)cc4)c23)C1` : ____
### Response 6.00 to 7.00

### Prompt Reported pIC50, molecule `CN(C/C=C/C(=O)N1CC[C@@H](N2CC(=O)N(c3ccc(Oc4ccccc4)cc3)c3ccnc4[nH]nc2c34)C1)C1CC1` : ____
### Response > 7.00
